testSummary: Clearance in NMRI mouse plasma at 2 mg/kg, iv
Type: ADME, organism-based
Parameters: dose 2 mg/kg, route intravenous
quantityName: clearance (mL/min/kg)
Just the number please, in mL/min/kg, no unit attached.

Query: Name the reported clearance value associated with the compound `Nc1nc(N)c2c(OCC3CCN(Cc4ccccc4F)CC3)cccc2n1`
Result: 1.4

###

experimentalTarget: CYP1A2 (Homo sapiens)
Sequence (P05177 whole entry): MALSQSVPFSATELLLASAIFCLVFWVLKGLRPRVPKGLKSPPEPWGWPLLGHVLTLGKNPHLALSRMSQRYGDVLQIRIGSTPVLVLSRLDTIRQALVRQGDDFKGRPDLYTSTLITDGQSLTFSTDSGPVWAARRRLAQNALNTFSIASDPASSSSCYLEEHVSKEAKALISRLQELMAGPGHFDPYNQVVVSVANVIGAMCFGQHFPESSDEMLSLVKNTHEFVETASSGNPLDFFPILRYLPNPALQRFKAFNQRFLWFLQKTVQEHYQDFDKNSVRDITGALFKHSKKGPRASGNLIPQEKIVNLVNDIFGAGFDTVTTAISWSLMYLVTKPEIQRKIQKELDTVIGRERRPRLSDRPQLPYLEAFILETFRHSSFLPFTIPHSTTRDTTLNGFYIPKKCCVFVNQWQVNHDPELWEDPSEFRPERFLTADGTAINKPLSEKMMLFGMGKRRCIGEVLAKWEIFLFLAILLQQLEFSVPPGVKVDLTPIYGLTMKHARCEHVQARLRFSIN
testSummary: Inhibition of CYP1A2 at 10 uM
Format: ADME
quantityName: inhibition at 10 µM

Query: Name the reported inhibition at 10 µM value associated with the compound `Nc1nc(N)c2c(OCC3CCN(Cc4ccccc4F)CC3)cccc2n1`
Result: < 50%

###

testSummary: Drug level in NMRI mouse plasma at 2 mg/kg, iv after 120 mins
Type: ADME, organism-based
Design: dose 2 mg/kg, route intravenous
concentration at 2 h below 20 ng/mL gives 0 (no); concentration at 2 h at or above it gives 1 (yes).

Query: Quick check: does `Nc1nc(N)c2c(OCC3CCN(C(=O)c4cccc(Cl)c4)CC3)cccc2n1` have concentration at 2 h greater than or equal to 20 ng/mL?
Result: 0 (no)

Query: Likewise for `Nc1nc(N)c2c(OCC3CCN(S(=O)(=O)c4ccccc4F)CC3)cccc2n1` ?
Result: 1 (yes)

Query: Likewise for `Nc1nc(N)c2c(OCC3CCN(Cc4cccc(Cl)c4)CC3)cccc2n1` ?
Result: 1 (yes)

Query: Likewise for `Nc1nc(N)c2c(OCC3CCN(Cc4ccccc4F)CC3)cccc2n1` ?
Result: 1 (yes)

###

testSummary: Volume of distribution at steady state in NMRI mouse plasma at 2 mg/kg, iv
Type: ADME, organism-based
Design: dose 2 mg/kg, route intravenous
details: read-out: Vdss
quantityName: Vd
A bare number is not enough; add the unit after it.

Query: Name the reported Vd value associated with the molecule `Nc1nc(N)c2c(OCC3CCN(Cc4ccccc4F)CC3)cccc2n1`
Result: 38.1 L/kg

###

testSummary: Half life in NMRI mouse brain at 2 mg/kg, iv
Assay type: ADME, organism-based
Set-up: dose 2 mg/kg, route intravenous
quantityName: half-life (h)
Just the number please, in h, no unit attached.

Query: Name the reported half-life value associated with the molecule `Nc1nc(N)c2c(OCC3CCN(Cc4ccccc4F)CC3)cccc2n1`
Result: 19

###

experimentalTarget: Cytochrome P450 2D6 (Homo sapiens)
Sequence (P10635 whole entry): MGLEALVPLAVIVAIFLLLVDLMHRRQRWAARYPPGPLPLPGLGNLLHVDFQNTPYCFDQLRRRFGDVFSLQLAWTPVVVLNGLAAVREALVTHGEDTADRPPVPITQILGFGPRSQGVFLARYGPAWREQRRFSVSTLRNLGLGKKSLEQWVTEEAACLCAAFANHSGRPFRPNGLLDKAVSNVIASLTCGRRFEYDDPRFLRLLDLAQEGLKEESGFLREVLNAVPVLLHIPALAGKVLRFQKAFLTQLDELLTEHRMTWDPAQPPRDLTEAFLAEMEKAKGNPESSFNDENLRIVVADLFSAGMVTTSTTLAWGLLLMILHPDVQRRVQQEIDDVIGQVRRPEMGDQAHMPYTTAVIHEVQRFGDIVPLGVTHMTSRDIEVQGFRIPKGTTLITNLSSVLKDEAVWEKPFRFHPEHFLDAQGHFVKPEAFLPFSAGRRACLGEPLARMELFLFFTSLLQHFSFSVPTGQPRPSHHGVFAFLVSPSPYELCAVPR
quantityName: IC50 (µM)
Just the number please, in µM, no unit attached.

Query: For the record `Nc1nc(N)c2c(OCC3CCN(Cc4ccccc4F)CC3)cccc2n1` , what value of IC50 is listed for Cytochrome P450 2D6 (Homo sapiens)?
Result: 9.38

###

testSummary: Toxicity against rat hepatoma cells assessed depletion of ATP levels
Format: cell-based
details: read-out: TC50 (the source's name)
quantityName: CC50 (nM)
Just the number please, in nM, no unit attached.

Query: Name the reported CC50 value associated with the molecule CC(Oc1cccc2nc(N)nc(N)c12)c1cccc(Cl)c1 (racemic)
Result: 1000

Query: Likewise for `Nc1nc(N)c2c(OCc3cccc(Cl)c3)cccc2n1` ?
Result: 300

Query: Likewise for `Nc1nc(N)c2c(OCc3ccc(Cl)cc3)cccc2n1` ?
Result: 100

###

testSummary: Mean residence time (0 to infinity) in NMRI mouse brain at 10 mg/kg, po
Format: ADME, organism-based
Parameters: dose 10 mg/kg, route oral
quantityName: MRT inf (h)
Just the number please, in h, no unit attached.

Query: Name the reported MRT inf value associated with the compound `Nc1nc(N)c2c(OCC3CCN(Cc4ccccc4F)CC3)cccc2n1`
Result: 27.3
